system: PBQ-induced writhing in the mouse; experiment: Phenylbenzoquinone-induced (PBQ) writhing model; conditions: Dose 30, IP
# cutoff 3 applies to Number of Writhes; >= gives Condition met, < gives Condition not met

Before answering, review these 5 worked examples.
{"structure": "CCS(=O)(=O)n1c(C)cc2cc(C(=O)c3cccc(Cl)c3Cl)sc21", "study system": "PBQ-induced writhing in the mouse", "class": "Condition met"}
{"structure": "Cc1cc2cc(C(=O)c3ccncn3)sc2n1CCN1CCOCC1", "study system": "PBQ-induced writhing in the mouse", "class": "Condition met"}
{"structure": "Cc1cc2cc(C(=O)c3ccccn3)sc2n1CCN1CCOCC1", "study system": "PBQ-induced writhing in the mouse", "class": "Condition met"}
{"structure": "COc1ccc(C(=O)c2cc3cc(C)n(CCN4CCOCC4)c3s2)cn1", "study system": "PBQ-induced writhing in the mouse", "class": "Condition not met"}
{"structure": "Cc1cc2cc(C(=O)c3cccc(Cl)c3Cl)sc2n1S(=O)(=O)N(C)C", "study system": "PBQ-induced writhing in the mouse", "class": "Condition met"}

Inquiry: Could you please find out whether Cc1cc2cc(C(=O)c3cccc(Cl)c3Cl)sc2n1CCN1CCOCC1 has Number of Writhes that meets 3 or exceeds it?
Reply text: Condition not met

###

Some compounds, each annotated with its measured pIC50.
target: recombinant human cannabinoid receptor CB2 (Homo sapiens, UniProt P34972); construct: (cDNA clone) CNR0200000; test: Cannabinoid receptor radioligand binding assay, [3H]-CP 55,940 displacement, hCB2
Sequence (P34972 whole entry): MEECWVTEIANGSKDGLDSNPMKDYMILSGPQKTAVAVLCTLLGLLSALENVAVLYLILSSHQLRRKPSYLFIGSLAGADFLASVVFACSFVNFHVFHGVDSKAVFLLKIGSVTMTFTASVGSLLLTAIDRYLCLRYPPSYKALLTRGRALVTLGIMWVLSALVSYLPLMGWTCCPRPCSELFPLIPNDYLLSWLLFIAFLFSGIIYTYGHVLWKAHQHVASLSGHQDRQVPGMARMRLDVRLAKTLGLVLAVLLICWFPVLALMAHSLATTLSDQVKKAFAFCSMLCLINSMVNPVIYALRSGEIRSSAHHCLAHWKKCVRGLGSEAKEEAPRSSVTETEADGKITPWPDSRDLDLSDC
pIC50: −log10 of the molar value.

Below, 3 compounds whose answers are already recorded.
{"structure": "COc1ccc(C(=O)c2cc3cc(C)n(CC4CCSCC4)c3s2)cn1", "meas value": "5.00 to 6.00"}
{"structure": "Cc1cc2cc(C(=O)c3cccc(Cl)c3Cl)sc2n1CCN1CCCCC1", "meas value": "> 7.00"}
{"structure": "CCS(=O)(=O)n1c(C)cc2cc(C(=O)c3ccc(OC)cc3)sc21", "meas value": "6.00 to 7.00"}

Inquiry: pIC50 lookup needed for COc1ccc(C(=O)c2cc3cc(C)[nH]c3s2)c(Cl)c1 , thanks.
Reply text: < 5.00

Inquiry: Form field: reported pIC50 of C=Cn1c(C)cc2cc(C(=O)c3cccc(Cl)c3Cl)sc21
Reply text: 5.00 to 6.00

Inquiry: Query (compound): COc1ccc(C(=O)c2cc3cc(C)n(CCN4CCOCC4)c3s2)cc1F ; field requested: pIC50
Reply text: 6.00 to 7.00

Inquiry: Returns the measured pIC50 for the input compound. Input: COc1ccc(C(=O)c2cc3cc(C)n(CCCNS(C)(=O)=O)c3s2)cn1
Reply text: 6.00 to 7.00

Inquiry: For CCS(=O)(=O)n1c(C)cc2cc(C(=O)c3cccnc3Cl)sc21 , what is its reported pIC50?
Reply text: 6.00 to 7.00

Inquiry: Entry under review: COc1ccc(C(=O)c2cc3cc(C)n(CCNS(C)(=O)=O)c3s2)cc1 . Reported pIC50?
Reply text: 5.00 to 6.00

Inquiry: I am curious: what pIC50 value has been reported for CCOc1ccc(C(=O)c2cc3cc(C)n(CCN4CCOCC4)c3s2)cc1 ?
Reply text: 6.00 to 7.00

Inquiry: Using the record for CCN(CC)CCn1c(C)cc2cc(C(=O)c3ccc(OC)nc3)sc21 , report its pIC50.
Reply text: 5.00 to 6.00

Inquiry: What measured pIC50 goes with CNc1ccc(C(=O)c2cc3cc(C)n(CCN4CCOCC4)c3s2)cc1 ?
Reply text: 6.00 to 7.00

###

Recorded pIC50 for the following molecules
target: recombinant human cannabinoid receptor CB1 (Homo sapiens); construct: (cDNA clone) CNR01L000; assay: Cannabinoid receptor radioligand binding assay, [3H]-CP 55,940 displacement, hCB1
pIC50: −log10 of the molar value.

{"molecule": "Cc1cc2cc(C(=O)c3cccc(Cl)c3Cl)sc2n1C", "pIC50": "< 5.00"}
{"molecule": "Cc1cc2cc(C(=O)c3cccc(Cl)c3Cl)sc2n1CC1CCOCC1", "pIC50": "6.00 to 7.00"}
{"molecule": "COc1ccc(C(=O)c2cc3cc(C)n(CCN4CCCC4)c3s2)cc1", "pIC50": "5.00 to 6.00"}

Inquiry: Please look up its pIC50: COc1ccc(C(=O)c2cc3cc(C)n(CCCNS(=O)(=O)C(F)(F)F)c3s2)cc1
Reply text: 6.80

Inquiry: Query: pIC50; subject: COc1ccc(C(=O)c2cc3cc(C)n(CCN4CCCC4)c3s2)cn1
Reply text: > 7.00

Inquiry: Quick check: pIC50 of COc1ccc(C(O)c2cc3cc(C)n(CCN4CCOCC4)c3s2)cc1 (stereo not drawn) ?
Reply text: 5.00 to 6.00

Inquiry: Query (molecule): COc1ccc(C(=O)c2cc3cc(C)n(CCN4CCOCC4)c3s2)cc1 ; field requested: pIC50
Reply text: 5.00 to 6.00

Inquiry: What measured pIC50 goes with COc1ccc(C(=O)c2cc3cc(C)n(CCN4CCOCC4)c3s2)c(C)n1 ?
Reply text: 5.00 to 6.00

Inquiry: State the recorded pIC50 for this entry: Cc1cc2cc(C(=O)c3ccncc3)sc2n1CCN1CCOCC1
Reply text: < 5.00

###

target: human CB2 receptors (Homo sapiens); construct: (cDNA clone) CNR0200000; test: cAMP assay in HEK-293 cells, hCB2 agonist; assay type: cell-based; conditions: inhibition of forskolin-stimulated cAMP, HEK-293 cells; read-out: hCB2 EC50 (cAMP ag)
property label: EC50

Reference set (8 entries):
{"structure": "Cc1ccc(C(=N)c2cc3cc(C)n(CCN4CCOCC4)c3s2)cc1", "meas value": "< 100 nM"}
{"structure": "COc1ccc(C(=O)c2cc3cc(C)n(CCC4CCOCC4)c3s2)cc1", "meas value": "< 100 nM"}
{"structure": "Cc1cc2cc(C(=O)c3cccc(Cl)c3Cl)sc2n1S(=O)(=O)CC1CCOCC1", "meas value": "< 100 nM"}
{"structure": "COc1ccc(C(=O)c2cc3cc(C)n(CCCNS(C)(=O)=O)c3s2)c(F)c1", "meas value": "< 100 nM"}
{"structure": "CCS(=O)(=O)n1c(C)cc2cc(C(=O)c3cccnc3Cl)sc21", "meas value": "< 100 nM"}
{"structure": "COc1cccc(C(=O)c2cc3cc(C)n(CCN4CCOCC4)c3s2)c1", "meas value": "< 100 nM"}
{"structure": "Cc1cc2cc(C(=O)c3cccc(Cl)c3Cl)sc2n1CCc1ccccc1", "meas value": "< 100 nM"}
{"structure": "Cc1cc2cc(C(=O)c3ccccc3)sc2n1CCN1CCOCC1", "meas value": "< 100 nM"}

Now turn to the next compound.
Inquiry: Which measured EC50 value corresponds to Cc1ccccc1C(=O)c1cc2cc(C)n(CCN3CCOCC3)c2s1 ?
Reply text: < 100 nM

###

Biological target: human CB2 (hCB2) (Homo sapiens, UniProt P34972)
Construct: (cDNA clone) CNR0200000
Sequence (P34972 whole entry): as above
Test: 35S GTPγS binding assay, hCB2 agonist
Format: biochemical
Conditions: GTPγS agonist, HEK-293 membranes; read-out: hCB2 EC50 (GTPyS ag)
Protocol: cDNA expression clones for human CB1 (hCB1, Genbank Accession No. AY225225) and human CB2 (hCB2, Genbank Accession No. AY242132) expressed in vector pcDNA3.1+ were purchased from UMR cDNA Resource Center, Rolla, Mo. (Clone ID CNR01L000 for hCB1; CNR0200000 for hCB2). Membranes were isolated from transfected cells as follows. […] Protein concentration of membrane suspensions were measured by Bradford Protein Assay using bovine serum albumin as the standard (BioRad catalog #500-0006). […]
property label: EC50

{"structure": "CCS(=O)(=O)n1c(C)cc2cc(C(=O)c3cccc(Cl)c3Cl)sc21", "EC50": "< 100 nM"}
{"structure": "COc1ccc(C(=O)c2cc3cc(C)n(C(=S)SC)c3s2)cc1", "EC50": "100 to 1000 nM"}
{"structure": "COc1ccc(C(=O)c2cc3cc(C)n(CCN4CCOCC4)c3s2)c(Cl)c1", "EC50": "< 100 nM"}
{"structure": "COc1ccc(C(=O)c2cc3cc(C)n(S(=O)(=O)CC4CCOCC4)c3s2)cc1", "EC50": "< 100 nM"}
{"structure": "Cc1cc2cc(C(=O)c3cccc(Cl)c3Cl)sc2n1CCc1ccccc1", "EC50": "< 100 nM"}

Inquiry: Would you mind telling me what EC50 value was observed for CCS(=O)(=O)n1c(C)cc2cc(C(=O)c3cccnc3Cl)sc21 ?
Reply text: < 100 nM

Inquiry: Need EC50 of CCn1c(C)cc2cc(C(=O)c3cccc(Cl)c3Cl)sc21 , thanks.
Reply text: 100 to 1000 nM

Inquiry: What does the data say about its EC50? Entry: COc1ccc(C(=O)c2cc3cc(C)n(CCN4CCOCC4)c3s2)c(C)n1
Reply text: < 100 nM

Inquiry: Consider the compound shown here: Cc1ccc(C(=O)c2cc3cc(C)n(CCCNS(C)(=O)=O)c3s2)c(F)c1 What is its recorded EC50?
Reply text: < 100 nM
